System: MCF7
Assay: Cytotoxicity against human MCF7 cells assessed as inhibition of IGF1-induced cellular growth
Assay type: functional, cell-based
quantity-measured: pIC50
Numbers only, as −log10 of the molar value.

Request: Name the reported pIC50 value associated with the molecule "CC[C@@H](C)C[C@@H](C)/C=C/CC[C@@H](O)[C@H](Cc1ccc(O)cc1)NC"
Result: 7.52
